Reported percentage damage caused to the plant, PRE Application ABUTH values follow for various compounds
Test system: Abutilon theophrasti (ABUTH)
test: Pre-emergence herbicidal glasshouse test, ABUTH
Type: in vivo
cond: 250 g/h, evaluated after 13 days, five-point scale
observable: percentage damage caused to the plant, PRE Application ABUTH

>>> df
                           molecular_string  reported_measurement
0  CCCC(=O)NCc1c(OC(F)(F)F)ccc(C(=O)Nc2nnnn2CC)c1Cl         5 (5=80-100%)
1  Cn1nnnc1NC(=O)c1ccc(OC(F)(F)F)c(CNC(=O)c2c(F)cccc2F)c1Cl         5 (5=80-100%)
2  CN(Cc1c(OC(F)(F)F)ccc(C(=O)Nc2nnnn2C)c1Cl)C(=O)C1CC1          3 (3=40-59%)
3  CC(=O)NCc1c(OC(F)(F)F)ccc(C(=O)Nc2nnnn2C)c1Cl         5 (5=80-100%)

====

Test system: Amaranthus retoflexus (AMARE)
test: Pre-emergence herbicidal glasshouse test, AMARE
Assay type: in vivo
cond: 250 g/h, evaluated after 13 days, five-point scale
observable: percentage damage caused to the plant, PRE Application AMARE

>>> print(df.to_string())
                           molecular_string                subject_of_test  reported_measurement
0  CCCC(=O)NCc1c(OC(F)(F)F)ccc(C(=O)Nc2nnnn2CC)c1Cl  Amaranthus retoflexus (AMARE)         5 (5=80-100%)
1  Cn1nnnc1NC(=O)c1ccc(OC(F)(F)F)c(CNC(=O)c2c(F)cccc2F)c1Cl  Amaranthus retoflexus (AMARE)         5 (5=80-100%)
2  CC(=O)NCc1c(OC(F)(F)F)ccc(C(=O)Nc2nnnn2C)c1Cl  Amaranthus retoflexus (AMARE)         5 (5=80-100%)
3  CN(Cc1c(OC(F)(F)F)ccc(C(=O)Nc2nnnn2C)c1Cl)C(=O)C1CC1  Amaranthus retoflexus (AMARE)           1 (1=0-19%)

====

Reported percentage damage caused to the plant, PRE Application IPOHE values follow for various compounds
Tested on: Ipomoea hederacea (IPOHE)
test: Pre-emergence herbicidal glasshouse test, IPOHE
Assay type: in vivo
cond: 250 g/h, evaluated after 13 days, five-point scale
observable: percentage damage caused to the plant, PRE Application IPOHE

>>> df
                           molecular_string  reported_measurement
0  Cn1nnnc1NC(=O)c1ccc(OC(F)(F)F)c(CNC(=O)c2ccc(Cl)cc2)c1Cl           1 (1=0-19%)
1  CCC(=O)N(C)Cc1c(OC(F)(F)F)ccc(C(=O)Nc2nnnn2C)c1Cl           1 (1=0-19%)
2  CC(=O)NCc1c(OC(F)(F)F)ccc(C(=O)Nc2nnnn2C)c1Cl          4 (4=60-79%)
3  CCC(=O)NCc1c(OC(F)(F)F)ccc(C(=O)Nc2nnnn2C)c1Cl          3 (3=40-59%)
4  CN(Cc1c(OC(F)(F)F)ccc(C(=O)Nc2nnnn2C)c1Cl)C(=O)C1CC1           1 (1=0-19%)
5  Cn1nnnc1NC(=O)c1ccc(OC(F)(F)F)c(CNC(=O)c2ccc(F)cc2F)c1Cl           1 (1=0-19%)
6  Cn1nnnc1NC(=O)c1ccc(OC(F)(F)F)c(CNC(=O)c2c(F)cccc2F)c1Cl           1 (1=0-19%)
7  CCCC(=O)NCc1c(OC(F)(F)F)ccc(C(=O)Nc2nnnn2CC)c1Cl           1 (1=0-19%)

The measured values listed here are drawn from patent US20250221411A1.
